Tested on: Neisseria meningitides (ATCC 13077)
Experiment: Disc diffusion assay
Format: cell-based
Conditions: ATCC13077, 4 μg per disc, read-out: Zone of inhibition N.m.
Where a name gives a salt, the structure may show the parent alone.

compound	measurement unit	zone of inhibition at 4 µg/disc
CN[C@@H]1[C@H](O)[C@H](NC)[C@H]2O[C@]3(O)[C@H](O[C@@H]2[C@H]1O)O[C@H](C)C[C@@]3(O)CNCc1nc2ccccc2s1 [compound 34, Trihydrobromide]	mm	12
CN[C@@H]1[C@H](O)[C@H](NC)[C@H]2O[C@]3(O)[C@H](O[C@@H]2[C@H]1O)O[C@H](C)C[C@@]3(O)CNCCC1CCOCC1 [compound 52, Trihydrochloride]	mm	12
CN[C@@H]1[C@H](O)[C@H](NC)[C@H]2O[C@]3(O)[C@H](O[C@@H]2[C@H]1O)O[C@H](C)C[C@@]3(O)CNCc1ccncc1	mm	6
CN[C@@H]1[C@H](O)[C@H](NC)[C@H]2O[C@]3(O)[C@H](O[C@@H]2[C@H]1O)O[C@H](C)C[C@@]3(O)CNCCc1nccs1	mm	11
CN[C@@H]1[C@H](O)[C@H](NC)[C@H]2O[C@]3(O)[C@H](O[C@@H]2[C@H]1O)O[C@H](C)C[C@@]3(O)CNCc1ccccc1F [compound 14, Trihydrochloride]	mm	19
CN[C@@H]1[C@H](O)[C@H](NC)[C@H]2O[C@]3(O)[C@H](O[C@@H]2[C@H]1O)O[C@H](C)C[C@@]3(O)CNCc1ccc(C)cc1C [compound 24, Trihydrochloride]	mm	17
CN[C@@H]1[C@H](O)[C@H](NC)[C@H]2O[C@]3(O)[C@H](O[C@@H]2[C@H]1O)O[C@H](C)C[C@@]3(O)CNCc1cccc(OC(F)(F)F)c1 [compound 25, Trihydrochloride]	mm	18

----------
Tested on: Streptococcus pneumoniae clinical isolates representing several serotypes
Experiment: MIC determination, Streptococcus pneumoniae panel of clinical isolates (Table 7)
Format: cell-based
Conditions: Streptococcus pneumoniae, BAA1407; S. pneumoniae BAA-1407, Macrolide Resistant; read-out: MIC BAA-1407
Counter-ions that a name gives are not always drawn.

compound	measured on	MIC [µg/mL]
CCc1ccc(CNC[C@]2(O)C[C@@H](C)O[C@H]3O[C@@H]4[C@@H](O)[C@H](NC)[C@H](O)[C@H](NC)[C@H]4O[C@]32O)cc1 [compound 3, Trihydrochloride]	Streptococcus pneumoniae clinical isolates representing several serotypes	6.3
CN[C@@H]1[C@H](O)[C@H](NC)[C@H]2O[C@]3(O)[C@H](O[C@@H]2[C@H]1O)O[C@H](C)C[C@@]3(O)CNCc1ccc(F)cc1 [compound 2, Trihydrochloride]	Streptococcus pneumoniae clinical isolates representing several serotypes	6.3
CN[C@@H]1[C@H](O)[C@H](NC)[C@H]2O[C@]3(O)[C@H](O[C@@H]2[C@H]1O)O[C@H](C)C[C@@]3(O)CNCc1ccccc1OC(F)(F)F [compound 10, Trihydrochloride]	Streptococcus pneumoniae clinical isolates representing several serotypes	25
CN[C@@H]1[C@H](O)[C@H](NC)[C@H]2O[C@]3(O)[C@H](O[C@@H]2[C@H]1O)O[C@H](C)C[C@@]3(O)CNCc1ccccc1 [compound 1, Trihydrochloride]	Streptococcus pneumoniae clinical isolates representing several serotypes	12.5
CN[C@@H]1[C@H](O)[C@H](NC)[C@H]2O[C@]3(O)[C@H](O[C@@H]2[C@H]1O)O[C@H](C)C[C@@]3(O)CNCc1ccc(OC(F)(F)F)cc1 [compound 11, Trihydrochloride]	Streptococcus pneumoniae clinical isolates representing several serotypes	6.3
CCOc1ccc(CNC[C@]2(O)C[C@@H](C)O[C@H]3O[C@@H]4[C@@H](O)[C@H](NC)[C@H](O)[C@H](NC)[C@H]4O[C@]32O)cc1 [compound 4, Trihydrochloride]	Streptococcus pneumoniae clinical isolates representing several serotypes	6.3
CN[C@@H]1[C@H](O)[C@H](NC)[C@H]2O[C@]3(O)[C@H](O[C@@H]2[C@H]1O)O[C@H](C)CC3(O)CN (some centres unmarked) [mSPC, 3′-aminomethyl-3′-hydroxy spectinomycin, reference compound]	Streptococcus pneumoniae clinical isolates representing several serotypes	200
CN[C@@H]1[C@H](O)[C@H](NC)[C@H]2O[C@]3(O)[C@H](O[C@@H]2[C@H]1O)O[C@H](C)C[C@@]3(O)CNCCc1ccccc1 [compound 6, Trihydrochloride]	Streptococcus pneumoniae clinical isolates representing several serotypes	12.5

----------
Test system: Staphylococcus aureus (ATCC 29213)
Experiment: MIC determination, microbroth dilution
Type: cell-based
Conditions: ATCC29213; Staphylococcus aureus (ATCC 29213); read-out: MIC S.a.
Where a name gives a salt, the structure may show the parent alone.

compound	MIC
CN[C@@H]1[C@H](O)[C@H](NC)[C@H]2O[C@]3(O)[C@H](O[C@@H]2[C@H]1O)O[C@H](C)C[C@@]3(O)CNCc1nc2ccccc2s1 [compound 34, Trihydrobromide]	50 to 100 µg/mL
CN[C@@H]1[C@H](O)[C@H](NC)C2O[C@]3(O)C(OC2[C@H]1O)O[C@H](C)C[C@@]3(O)CNCc1ccc2ccn(C)c2c1 (some centres unmarked)	50 µg/mL
CN[C@@H]1[C@H](O)[C@H](NC)[C@H]2O[C@]3(O)[C@H](O[C@@H]2[C@H]1O)O[C@H](C)C[C@@]3(O)CNCCC1CCOCC1 [compound 52, Trihydrochloride]	200 µg/mL
CN[C@@H]1[C@H](O)[C@H](NC)[C@H]2O[C@]3(O)[C@H](O[C@@H]2[C@H]1O)O[C@H](C)C[C@@]3(O)CNCc1cccs1 [compound 17, Trihydrochloride]	50 µg/mL
CN[C@@H]1[C@H](O)[C@H](NC)C2O[C@]3(O)C(OC2[C@H]1O)O[C@H](C)C[C@@]3(O)CNCc1ccc(-c2ccccc2)cc1 (some centres unmarked)	100 µg/mL

----------
# MIC annotations
System: M. tuberculosis clinical isolates
Test: microbe, parasite or virus in culture
Type: cell-based
Settings: Mycobacterium tuberculosis, H37RV, read-out: MIC H37Rv
Where a name gives a salt, the structure may show the parent alone.

molecule	measurement unit	censoring sign	MIC
CN[C@@H]1[C@H](O)[C@H](NC)[C@H]2O[C@]3(O)[C@H](O[C@@H]2[C@H]1O)O[C@H](C)C[C@@]3(O)CNc1ccccc1 [compound 30, Trihydrochloride]	µg/mL	>	200
CN[C@@H]1[C@H](O)[C@H](NC)[C@H]2O[C@]3(O)[C@H](O[C@@H]2[C@H]1O)O[C@H](C)C[C@@]3(O)CNCc1ccc(C(C)C)cc1 [compound 23, Trihydrochloride]	µg/mL	=	25
CN[C@@H]1[C@H](O)[C@H](NC)C2O[C@]3(O)C(OC2[C@H]1O)O[C@H](C)C[C@@]3(O)CNCCCc1ccco1 (stereo partly drawn)	µg/mL	=	6.3

----------
# MIC annotations
Tested on: Streptococcus pyogenes (ATCC 700294)
Assay: MIC determination, microbroth dilution
Assay type: cell-based
Settings: Streptococcus pyogenes, ATCC700294, read-out: MIC S. py.
Structures can show the parent of a compound that is named as a salt.
test readout: MIC

molecule	test readout	obs value
CN[C@@H]1[C@H](O)[C@H](NC)[C@H]2O[C@]3(O)[C@H](O[C@@H]2[C@H]1O)O[C@H](C)C[C@@]3(O)CNCCc1ccc(OC)cc1 [compound 53, Trihydrochloride]	MIC	12.5 to 25 µg/mL
CN[C@@H]1[C@H](O)[C@H](NC)[C@H]2O[C@]3(O)[C@H](O[C@@H]2[C@H]1O)O[C@H](C)C[C@@]3(O)CNCc1ccccn1	MIC	12.5 to 25 µg/mL
CN[C@@H]1[C@H](O)[C@H](NC)[C@H]2O[C@]3(O)[C@H](O[C@@H]2[C@H]1O)O[C@H](C)C[C@@]3(O)CNCC(C)c1ccccc1 (some centres unmarked)	MIC	12.5 µg/mL
CN[C@@H]1[C@H](O)[C@H](NC)[C@H]2O[C@]3(O)[C@H](O[C@@H]2[C@H]1O)O[C@H](C)C[C@@]3(O)CNCCc1ccc(C)c(C)c1 [compound 55, Trihydrochloride]	MIC	12.5 to 25 µg/mL
CN[C@@H]1[C@H](O)[C@H](NC)[C@H]2O[C@]3(O)[C@H](O[C@@H]2[C@H]1O)O[C@H](C)C[C@@]3(O)CNCc1cccs1 [compound 17, Trihydrochloride]	MIC	6.3 to 12.5 µg/mL

----------
Test system: Bacillus anthracis, Sterne 34F2
Experiment: microbe, parasite or virus in culture
Format: cell-based
Conditions: STERNE34F2, read-out: MIC B.a.
Where a name gives a salt, the structure may show the parent alone.

molecule	MIC
CN[C@@H]1[C@H](O)[C@H](NC)[C@H]2O[C@]3(O)[C@H](O[C@@H]2[C@H]1O)O[C@H](C)C[C@@]3(O)CNCCC1CCOCC1 [compound 52, Trihydrochloride]	50 to 100 µg/mL
CN[C@@H]1[C@H](O)[C@H](NC)[C@H]2O[C@]3(O)[C@H](O[C@@H]2[C@H]1O)O[C@H](C)C[C@@]3(O)CNCc1cccc(OC(F)(F)F)c1 [compound 25, Trihydrochloride]	25 µg/mL
CN[C@@H]1[C@H](O)[C@H](NC)[C@H]2O[C@]3(O)[C@H](O[C@@H]2[C@H]1O)O[C@H](C)C[C@@]3(O)CNCc1ccc(C)cc1C [compound 24, Trihydrochloride]	50 µg/mL
CN[C@@H]1[C@H](O)[C@H](NC)[C@H]2O[C@]3(O)[C@H](O[C@@H]2[C@H]1O)O[C@H](C)C[C@@]3(O)CNCc1cccc(F)c1 [compound 15, Trihydrochloride]	12.5 to 25 µg/mL
CN[C@@H]1[C@H](O)[C@H](NC)C2O[C@]3(O)C(OC2[C@H]1O)O[C@H](C)C[C@@]3(O)CNCc1ccc2ccn(C)c2c1 (some centres unmarked)	> 200 µg/mL

Source: patent US10266544B2
